# IC50 per record follows
target.desc: EGFR del19/C797S (Homo sapiens, UniProt P00533, C797S/DEL746-750)
Sequence (P00533 with tags, fused parts or gaps DEL746-750/C797S): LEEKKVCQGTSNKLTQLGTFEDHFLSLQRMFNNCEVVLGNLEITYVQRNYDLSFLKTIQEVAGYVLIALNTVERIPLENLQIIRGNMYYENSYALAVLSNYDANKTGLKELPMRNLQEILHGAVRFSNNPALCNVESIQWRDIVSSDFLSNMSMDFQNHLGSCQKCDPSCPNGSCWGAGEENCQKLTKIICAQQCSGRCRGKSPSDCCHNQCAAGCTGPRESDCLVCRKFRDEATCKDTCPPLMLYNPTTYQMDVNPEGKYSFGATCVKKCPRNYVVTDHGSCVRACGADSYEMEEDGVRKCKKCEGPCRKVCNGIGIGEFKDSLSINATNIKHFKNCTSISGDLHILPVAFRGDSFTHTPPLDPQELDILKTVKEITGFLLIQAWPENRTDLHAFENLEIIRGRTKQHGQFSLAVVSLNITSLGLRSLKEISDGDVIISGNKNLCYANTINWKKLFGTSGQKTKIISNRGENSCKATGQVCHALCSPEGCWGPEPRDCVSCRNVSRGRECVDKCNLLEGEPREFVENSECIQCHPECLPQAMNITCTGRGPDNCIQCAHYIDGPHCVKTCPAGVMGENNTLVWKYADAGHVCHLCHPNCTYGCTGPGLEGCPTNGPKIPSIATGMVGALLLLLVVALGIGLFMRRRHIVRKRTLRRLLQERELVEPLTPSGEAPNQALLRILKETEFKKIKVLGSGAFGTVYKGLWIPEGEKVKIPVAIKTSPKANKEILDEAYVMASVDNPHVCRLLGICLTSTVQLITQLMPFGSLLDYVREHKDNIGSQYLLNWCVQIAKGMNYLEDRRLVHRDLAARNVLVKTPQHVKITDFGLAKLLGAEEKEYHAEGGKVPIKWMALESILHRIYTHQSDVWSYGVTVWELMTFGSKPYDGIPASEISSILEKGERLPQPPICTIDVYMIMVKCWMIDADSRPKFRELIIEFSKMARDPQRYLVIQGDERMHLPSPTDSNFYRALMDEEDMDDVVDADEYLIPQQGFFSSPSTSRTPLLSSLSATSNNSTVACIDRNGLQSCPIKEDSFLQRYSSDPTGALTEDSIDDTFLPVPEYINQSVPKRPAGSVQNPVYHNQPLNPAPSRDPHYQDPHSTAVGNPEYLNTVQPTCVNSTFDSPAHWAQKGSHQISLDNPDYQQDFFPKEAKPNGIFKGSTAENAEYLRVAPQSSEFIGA
assay.notes: Biochemical EGFR kinase assay (Lance Ultra TR-FRET), double mutant del19/C797S
assay.conditions: IC50 del19/C797S (nM) 100 μM ATP, 100 μM ATP
Give the number; nM is assumed, so skip it.

Please review the following examples before continuing.
CN1CCN(Cc2ccc(-c3cnc(Nc4ccnc(-c5cnn(S(=O)(=O)C6CC6)c5)n4)cc3N[C@H]3CC[C@](O)(CO)CC3)nc2)CC1; 0.4
CN(C)c1ccnc(-c2cnc(Nc3ccnc(-c4cnn(S(=O)(=O)C5CC5)c4)n3)cc2N[C@H]2CC[C@@](C)(O)CC2)n1; 5.1

Below: the item to evaluate.
Bench note: what IC50 did `CC(C)(O)[C@H]1CC[C@@H](Nc2cc(Nc3ccnc(-c4cnn(S(=O)(=O)C5CC5)c4)n3)ncc2-c2ccc(N3CCOCC3)cn2)CC1` show?
1.7

====

pIC50 overview
target.desc: EGFR L858R/T790M/C797S (Homo sapiens, UniProt P00533, C797S/L858R/T790M)
Sequence (P00533 25-1210 T790M/C797S/L858R): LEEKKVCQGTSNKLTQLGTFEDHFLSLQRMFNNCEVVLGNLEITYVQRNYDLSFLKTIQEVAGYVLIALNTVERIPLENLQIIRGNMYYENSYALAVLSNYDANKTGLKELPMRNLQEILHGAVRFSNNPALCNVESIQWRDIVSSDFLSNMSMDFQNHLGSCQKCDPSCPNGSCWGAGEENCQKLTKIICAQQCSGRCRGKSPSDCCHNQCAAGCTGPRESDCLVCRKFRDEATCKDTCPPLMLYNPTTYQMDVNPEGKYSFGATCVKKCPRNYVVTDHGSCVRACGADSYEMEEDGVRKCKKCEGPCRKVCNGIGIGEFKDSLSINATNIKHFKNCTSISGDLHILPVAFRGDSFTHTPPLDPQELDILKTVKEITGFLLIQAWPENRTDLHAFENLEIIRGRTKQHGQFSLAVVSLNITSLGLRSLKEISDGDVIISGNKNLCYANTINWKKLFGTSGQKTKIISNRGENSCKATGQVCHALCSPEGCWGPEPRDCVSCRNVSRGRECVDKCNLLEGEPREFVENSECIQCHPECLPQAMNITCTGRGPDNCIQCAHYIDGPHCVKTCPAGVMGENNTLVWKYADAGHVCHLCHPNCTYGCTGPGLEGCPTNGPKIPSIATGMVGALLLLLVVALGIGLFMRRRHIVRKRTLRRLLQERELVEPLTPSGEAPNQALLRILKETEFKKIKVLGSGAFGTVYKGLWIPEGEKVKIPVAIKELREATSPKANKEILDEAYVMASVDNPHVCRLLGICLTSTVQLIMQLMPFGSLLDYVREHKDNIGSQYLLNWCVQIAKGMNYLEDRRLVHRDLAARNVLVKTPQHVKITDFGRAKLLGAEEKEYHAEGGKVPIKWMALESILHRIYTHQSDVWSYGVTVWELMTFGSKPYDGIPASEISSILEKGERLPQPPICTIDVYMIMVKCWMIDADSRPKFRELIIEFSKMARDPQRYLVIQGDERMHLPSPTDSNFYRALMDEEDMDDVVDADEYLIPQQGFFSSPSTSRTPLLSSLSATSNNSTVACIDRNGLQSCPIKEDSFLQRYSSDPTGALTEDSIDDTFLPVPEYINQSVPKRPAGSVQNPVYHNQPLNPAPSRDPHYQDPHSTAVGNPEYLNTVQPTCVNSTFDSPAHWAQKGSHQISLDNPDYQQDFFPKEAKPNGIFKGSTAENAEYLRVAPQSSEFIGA
assay.notes: Biochemical EGFR kinase assay (Lance Ultra TR-FRET), triple mutant L858R/T790M/C797S
assay.conditions: IC50 L858R/T790M/C797S, 100 μM ATP
// pIC50: -log10(molar conc.)

CN(C)S(=O)(=O)c1ccc(-c2cnc(Nc3ccnc(-c4cnn(S(=O)(=O)C5CC5)c4)n3)cc2N[C@H]2CC[C@@H](C(C)(C)O)CC2)nc1 [Example 165]; 8.77
CN1CCN(C(=O)c2ccc(-c3cnc(Nc4ccnc(-c5cnn(S(=O)(=O)C6CC6)c5)n4)cc3N[C@H]3CC[C@@H](C(C)(C)O)CC3)nc2)CC1 [Example 203]; 9.52
O=S(=O)(C1CC1)n1cc(-c2nccc(Nc3cc(NC4CCC(CO)CC4)c(-c4ccc(C(O)C(F)(F)F)cn4)cn3)n2)cn1 (stereo not drawn) [Example 227]; 9.10
C[C@]1(O)CC[C@@H](Nc2cc(Nc3ccnc(-c4cnn(S(=O)(=O)C5CC5)c4)n3)ncc2-c2cc(NCCCO)ccn2)CC1 [Example 282]; 9.40

Which pIC50 reading was recorded for the compound C[C@]1(O)CC[C@@H](Nc2cc(Nc3ccnc(-c4cnn(S(=O)(=O)C5CC5)c4)n3)ncc2-c2ccc(OC(F)(F)F)cn2)CC1 [Example 194] ?
8.66

Suppose we examine the compound CC(F)(F)c1ccc(-c2cnc(Nc3ccnc(-c4cnn(S(=O)(=O)C5CC5)c4)n3)cc2N[C@H]2CC[C@@](C)(O)CC2)nc1 [Example 292] ; what pIC50 value has been reported?
8.96

====

target.desc: EGFR L858R/T790M/C797S (Homo sapiens, UniProt P00533, C797S/L858R/T790M)
assay.notes: Biochemical EGFR kinase assay (Lance Ultra TR-FRET), triple mutant L858R/T790M/C797S
assay.conditions: ATP at Km; read-out: IC50 L858R/T790M/C797S, Km ATP
Reported pIC50 values are given for each entry in this list.
pIC50 here is simply -log10 of the concentration when that concentration is written in mol/L.

Requested read-out: pIC50. Entry: CN(C)CC1CCC(Nc2cc(Nc3ccnc(-c4cnn(S(=O)(=O)C5CC5)c4)n3)ncc2-c2ccc(C(C)(O)C(F)(F)F)cn2)CC1 (stereo not drawn) [Example 234]
9.70

Suppose we examine the compound CC(C)(O)C1CCC(Nc2cc(Nc3ccnc(-c4cnn(S(=O)(=O)C5CC5)c4)n3)ncc2-c2ccc(C(C)(O)C(F)(F)F)cn2)CC1 (stereo not drawn) [Example 233] ; what pIC50 value has been reported?
9.05

What pIC50 value was documented for this compound, CC1(O)CCC(Nc2cc(Nc3ccnc(-c4cnn(S(=O)(=O)C5CC5)c4)n3)ncc2-c2ccc(C(O)C(F)(F)F)cn2)CC1 (stereo not drawn) [Example 226] ?
9.52

GET /values?readout=pIC50&item= CN1CCC(Oc2ccc(-c3cnc(Nc4ccnc(-c5cnn(S(=O)(=O)C6CC6)c5)n4)cc3NC3CCCN(CCF)C3)nc2)CC1 (stereo not drawn) [Example 257]
9.70

====

target.desc: EGFR wildtype (Homo sapiens, UniProt P00533)
Sequence (P00533 25-1210): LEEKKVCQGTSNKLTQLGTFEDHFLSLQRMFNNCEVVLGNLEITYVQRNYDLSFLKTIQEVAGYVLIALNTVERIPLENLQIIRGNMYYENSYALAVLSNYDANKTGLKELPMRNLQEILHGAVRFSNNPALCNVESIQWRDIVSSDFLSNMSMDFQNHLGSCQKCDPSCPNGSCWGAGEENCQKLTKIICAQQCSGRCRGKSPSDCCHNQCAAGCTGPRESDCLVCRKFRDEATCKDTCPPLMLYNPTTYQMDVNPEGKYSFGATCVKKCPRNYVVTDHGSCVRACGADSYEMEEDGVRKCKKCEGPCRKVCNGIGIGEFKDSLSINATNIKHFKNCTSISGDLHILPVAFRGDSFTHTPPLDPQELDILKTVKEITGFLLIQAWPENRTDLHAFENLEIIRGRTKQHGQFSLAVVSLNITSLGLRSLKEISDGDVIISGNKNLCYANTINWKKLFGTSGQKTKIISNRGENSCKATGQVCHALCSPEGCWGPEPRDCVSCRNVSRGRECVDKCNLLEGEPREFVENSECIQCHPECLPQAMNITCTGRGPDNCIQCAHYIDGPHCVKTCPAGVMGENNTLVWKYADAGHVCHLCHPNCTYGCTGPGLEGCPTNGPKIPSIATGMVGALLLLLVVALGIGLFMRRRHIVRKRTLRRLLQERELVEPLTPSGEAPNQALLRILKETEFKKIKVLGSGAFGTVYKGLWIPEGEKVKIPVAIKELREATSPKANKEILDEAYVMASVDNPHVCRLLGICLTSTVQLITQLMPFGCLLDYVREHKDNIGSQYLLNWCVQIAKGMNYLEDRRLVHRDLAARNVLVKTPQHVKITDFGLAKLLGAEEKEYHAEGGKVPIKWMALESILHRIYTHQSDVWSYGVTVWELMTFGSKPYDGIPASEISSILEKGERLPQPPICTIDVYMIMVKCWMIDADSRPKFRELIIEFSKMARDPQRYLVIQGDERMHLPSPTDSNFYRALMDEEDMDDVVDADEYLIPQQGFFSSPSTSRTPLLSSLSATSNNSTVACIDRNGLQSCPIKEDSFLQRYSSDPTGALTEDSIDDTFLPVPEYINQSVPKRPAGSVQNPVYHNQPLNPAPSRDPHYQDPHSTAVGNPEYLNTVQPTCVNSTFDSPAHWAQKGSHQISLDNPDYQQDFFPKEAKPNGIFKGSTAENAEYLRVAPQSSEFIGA
assay.notes: Biochemical EGFR kinase assay (Lance Ultra TR-FRET), wildtype
assay.conditions: Km ATP; read-out: IC50 WT (nM) Km ATP
Method: Biochemical EGFR kinase assays were conducted using Lance Ultra time-resolved fluorescence resonance energy transfer (TR-FRET) technology from Perkin-Elmer. […] Each kinase reactions were incubated at room temperature for 1 hour and then stopped by the addition of 4 μL of stop solution (10 mM EDTA). […] After 60 minutes incubation at room temperature the LANCE signal was measured on an EnVision Multilabel Reader (Perkin-Elmer). […]
Items are presented alongside their recorded IC50.
Use nM as the unit, but write only the number.

Answered cases to consult:
CN(C)Cc1ccc(-c2cnc(Nc3ccnc(-c4cnn(S(=O)(=O)C5CC5)c4)n3)cc2N[C@H]2CC[C@@H](C(C)(C)O)CC2)nc1; 0.9
CN1CCN(Cc2ccc(-c3cnc(Nc4ccnc(-c5cnn(S(=O)(=O)C6CC6)c5)n4)cc3N[C@H]3CC[C@@](C)(O)CC3)nc2)CC1; 1

Need IC50, item `CN(C)C[C@H]1CC[C@@H](Nc2cc(Nc3ccnc(-c4cnn(S(=O)(=O)C5CC5)c4)n3)ncc2-c2cc(C(F)F)ccn2)CC1`
1.4

====

target.desc: EGFR del19/C797S (Homo sapiens, UniProt P00533, C797S/DEL746-750)
assay.notes: Biochemical EGFR kinase assay (Lance Ultra TR-FRET), double mutant del19/C797S
assay.conditions: Km ATP; read-out: IC50 del19/C797S (nM) Km ATP
Param label: returns Y when IC50 < 0.4 nM, returns N otherwise, including exact equality.

For orientation, consider the following solved cases.
COc1cnc(-c2cnc(Nc3ccnc(-c4cnn(S(=O)(=O)C5CC5)c4)n3)cc2N[C@H]2CC[C@@](C)(O)CC2)cn1; N
C[C@]1(O)CC[C@@H](Nc2cc(Nc3ccnc(-c4cnn(S(=O)(=O)C5CC5)c4)n3)ncc2-c2cccc(CO)n2)CC1; Y

Field: below-cutoff. Rule: recorded IC50 strictly less than 0.4 nM. Subject: `CN(C)C[C@H]1CC[C@@H](Nc2cc(Nc3ccnc(-c4cnn(S(=O)(=O)C5CC5)c4)n3)ncc2-c2cc(C(C)(C)O)ccn2)CC1`
Y

I wonder whether CN1CCC(Oc2ccc(-c3cnc(Nc4ccnc(-c5cnn(CC(F)F)c5)n4)cc3NC3CCC(F)(F)C3)nc2)CC1 (stereo not shown) has IC50 below 0.4 nM. Can you tell?
N

Quick check: does `CN(C)Cc1cnc(-c2cnc(Nc3ccnc(-c4cnn(S(=O)(=O)C5CC5)c4)n3)cc2N[C@H]2CC[C@@](C)(O)CC2)cn1` have IC50 under 0.4 nM?
Y

Quick check: IC50 of `C[C@]1(O)CC[C@@H](Nc2cc(Nc3ccnc(-c4cnn(S(=O)(=O)C5CC5)c4)n3)ncc2-c2cccnn2)CC1` under 0.4 nM?
Y

Here's an entry: `CN(C)C[C@H]1CC[C@@H](Nc2cc(Nc3ccnc(-c4cnn(S(=O)(=O)C5CC5)c4)n3)ncc2-c2ccc(C(C)(C)O)nn2)CC1` . Is its IC50 below 0.4 nM?
Y

Criterion: IC50 strictly below 0.4 nM. Is it met by `Cc1cnc(-c2cnc(Nc3ccnc(-c4cnn(S(=O)(=O)C5CC5)c4)n3)cc2N[C@H]2CC[C@@](C)(O)CC2)cn1` ?
N

A record lists `C[C@]1(O)CC[C@@H](Nc2cc(Nc3ccnc(-c4cnn(S(=O)(=O)C5CC5)c4)n3)ncc2-c2ccccn2)CC1` . Is its IC50 below 0.4 nM?
Y

# check: IC50 < 0.4 nM for `C[C@]1(O)CC[C@@H](Nc2cc(Nc3ccnc(-c4cnn(S(=O)(=O)C5CC5)c4)n3)ncc2-c2ccc(N3CCC(F)(F)CC3)nn2)CC1`
N

Criterion: IC50 strictly below 0.4 nM. Is it met by `C[C@]1(O)CC[C@@H](Nc2cc(Nc3ccnc(-c4cnn(S(=O)(=O)C5CC5)c4)n3)ncc2-c2ccc(N3CCOCC3)cn2)CC1` ?
Y

====

IC50 values, listed per item
target.desc: EGFR wildtype (Homo sapiens)
assay.notes: Biochemical EGFR kinase assay (Lance Ultra TR-FRET), wildtype
assay.conditions: ATP at Km; read-out: IC50 WT, Km ATP

Here are 5 molecules together with their reported answers.
CC(O)(c1ccc(-c2cnc(Nc3ccnc(-c4cnn(S(=O)(=O)C5CC5)c4)n3)cc2NC2CCC(F)CC2)nc1)C(F)(F)F (stereo not drawn) [Example 266]; 168 nM
CN(C)C[C@H]1CC[C@@H](Nc2cc(Nc3ccnc(-c4cnn(S(=O)(=O)C5CC5)c4)n3)ncc2-c2ccc(CC(F)(F)F)cn2)CC1 [Example 221]; 2.1 nM
CN1CCC(Oc2ccc(-c3cnc(Nc4ccnc(-c5cnn(S(=O)(=O)C6CC6)c5)n4)cc3N[C@H]3CCC[C@H](CO)C3)nc2)CC1 [Example 253]; 1 nM
O=S(=O)(C1CC1)n1cc(-c2nccc(Nc3cc(N[C@H]4CC[C@@H](CCO)CC4)c(-c4ccc(CC(F)(F)F)cn4)cn3)n2)cn1 [Example 223]; 11.5 nM
CN1CCC(Oc2ccc(-c3cnc(Nc4ccnc(-c5cnn(S(=O)(=O)C6CC6)c5)n4)cc3NC3CCC(F)(CO)CC3)nc2)CC1 (stereo not drawn) [Example 259]; 9 nM

Attention now shifts to the item below.
Look up IC50: O=S(=O)(C1CC1)n1cc(-c2nccc(Nc3cc(NC4CCC(F)(CO)CC4)c(-c4cccc(F)n4)cn3)n2)cn1 (stereo not drawn) [Example 162]
2970 nM

Origin of values: patent US12258328B2
